// reported inhibition for each item listed
Target: Serine/threonine-protein kinase Sgk2 (Homo sapiens) (UniProt Q9HBY8);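 further: each value is a mean percent inhibition of SGK2 from the GSK PKIS kinase screen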
Sequence (Q9HBY8 whole entry): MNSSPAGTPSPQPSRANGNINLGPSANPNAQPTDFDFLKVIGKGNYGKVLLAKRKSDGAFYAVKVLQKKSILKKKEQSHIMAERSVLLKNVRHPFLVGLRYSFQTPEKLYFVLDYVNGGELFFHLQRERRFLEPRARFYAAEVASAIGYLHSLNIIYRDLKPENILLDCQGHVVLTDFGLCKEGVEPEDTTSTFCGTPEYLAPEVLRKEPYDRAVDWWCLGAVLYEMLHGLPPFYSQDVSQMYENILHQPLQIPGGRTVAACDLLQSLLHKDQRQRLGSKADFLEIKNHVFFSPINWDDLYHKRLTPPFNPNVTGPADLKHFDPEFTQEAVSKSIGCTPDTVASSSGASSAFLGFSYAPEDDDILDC
Conditions: at 0.1 µM
The figure you give is taken to be in %; do not add the unit.

{"Structure smiles": "CCc1cccc(NC(=O)Nc2ccc(Oc3ccc4nc(NC(=O)OC)[nH]c4c3)cc2)c1", "Assay system": "Serine/threonine-protein kinase Sgk2 (Homo sapiens) (UniProt Q9HBY8)", "inhibition (%)": 3.74}
{"Structure smiles": "O=C1NC(=O)C(c2ccc(Cl)cc2)=C1Nc1ccc(Cl)c(C(=O)O)c1", "Assay system": "Serine/threonine-protein kinase Sgk2 (Homo sapiens) (UniProt Q9HBY8)", "inhibition (%)": -3.55}
{"Structure smiles": "Fc1cccc(COc2ccc(Nc3ncnc4sc(-c5cccs5)cc34)cc2Cl)c1", "Assay system": "Serine/threonine-protein kinase Sgk2 (Homo sapiens) (UniProt Q9HBY8)", "inhibition (%)": 0.37}
{"Structure smiles": "CS(=O)(=O)CCN(CC#N)Cc1ccc(-c2ccc3ncnc(Nc4ccc(OCc5cccc(F)c5)c(Cl)c4)c3c2)o1", "Assay system": "Serine/threonine-protein kinase Sgk2 (Homo sapiens) (UniProt Q9HBY8)", "inhibition (%)": 1.72}
{"Structure smiles": "COC(=O)Nc1nc2cc(Oc3cccc(NC(=O)Nc4cc(C(F)(F)F)ccc4F)c3)ccc2[nH]1", "Assay system": "Serine/threonine-protein kinase Sgk2 (Homo sapiens) (UniProt Q9HBY8)", "inhibition (%)": -2.66}

Query: In one line, give reported inhibition of the entry CS(=O)(=O)Nc1ccc(N/C=C2\C(=O)Nc3ccccc32)cc1 .
Response: -2.1

Query: In one line, give reported inhibition of the entry Nc1nc(-c2ccc3c(c2)C(=Cc2cc(Br)c(O)c(Br)c2)C(=O)N3)cs1 .
Response: 0.38

Query: In one line, give reported inhibition of the entry Cc1ccc(C(=O)NC2CCCCC2)cc1-c1ccc(C(=O)NCC2CC2)cc1 .
Response: 1.32

Query: In one line, give reported inhibition of the entry Nc1nc(-c2ccccn2)c(-c2ccc3ncccc3n2)s1 .
Response: 0.04

Query: In one line, give reported inhibition of the entry CC(=O)Nc1cccc(C#Cc2cncnc2Nc2ccc(OCc3cccc(F)c3)c(Cl)c2)n1 .
Response: 1.09

---

Target: Insulin receptor-related protein (Homo sapiens);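 further: each reported figure is the mean of the IRR inhibition readings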
Conditions: at 1 µM
Measured endpoint: inhibition (%)
The figure you give is taken to be in %; do not add the unit.

These solved cases illustrate the format of a correct answer.
{"Structure smiles": "Cc1cccc(-c2n[nH]cc2-c2ccc3ncccc3n2)n1", "Measured endpoint": "inhibition", "Value reported": -0.38}
{"Structure smiles": "O=C1NC(=O)C(c2ccc(Cl)cc2)=C1Nc1ccc(Cl)c(C(=O)O)c1", "Measured endpoint": "inhibition", "Value reported": -1.7}
{"Structure smiles": "COc1cc2ncn(-c3cc(O[C@@H](C)c4ccccc4Cl)c(C(N)=O)s3)c2cc1OC", "Measured endpoint": "inhibition", "Value reported": 3.99}

Query: In one line, give reported inhibition of the entry NCc1ccc(-c2nc(-c3ccc(Cl)c(O)c3)c(-c3ccncc3)[nH]2)cc1 .
Response: -1.54

Query: In one line, give reported inhibition of the entry CS(=O)(=O)CCNCc1ccc(-c2ccc3ncnc(Nc4ccc(OCc5ccccc5)c(Cl)c4)c3c2)o1 .
Response: -1.47

---

// reported inhibition for each item listed
Molecular target: Proto-oncogene tyrosine-protein kinase Src (Homo sapiens);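 further: each value is an averaged percent inhibition of SRC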
Settings: at 1 µM
The figure you give is taken to be in %; do not add the unit.

These solved cases illustrate the format of a correct answer.
{"Molecule": "COc1cc2ncn(-c3cc(OCc4ccccc4C(F)(F)F)c(C(N)=O)s3)c2cc1OC", "Output unit": "%", "Value reported": 21.2}
{"Molecule": "Cc1ccc(NC(=O)c2ccnc(N3CCCC3)c2)cc1-c1ccc(C(=O)NCC2CC2)cc1", "Output unit": "%", "Value reported": 9.16}
{"Molecule": "COc1cc2c(cc1Nc1nc(N3CCc4ccccc43)c3cc[nH]c3n1)N(C(=O)CN(C)C)CC2", "Output unit": "%", "Value reported": 8.12}
{"Molecule": "c1cnn2ncc(-c3ccnc(Nc4ccc5c(c4)OCCO5)n3)c2c1", "Output unit": "%", "Value reported": 32.3}
{"Molecule": "Cc1nn(C)c2cc(N(C)c3ccnc(Nc4cccc(S(N)(=O)=O)c4)n3)ccc12", "Output unit": "%", "Value reported": 49.5}
{"Molecule": "Cc1nnc(-c2ccc(C)c(-c3ccc(C(=O)Nc4cccc(C#N)c4)cc3)c2)o1", "Output unit": "%", "Value reported": 6.82}
{"Molecule": "O=C1NC(=O)C(c2ccc(Cl)cc2)=C1Nc1ccc(Cl)c(C(=O)O)c1", "Output unit": "%", "Value reported": -1.52}
{"Molecule": "CC1=C(C(=O)Nc2ccc3[nH]ncc3c2)C(c2ccc(F)cc2)NC(=O)N1 (centres undefined)", "Output unit": "%", "Value reported": 4.28}
{"Molecule": "Nc1ncnc2occ(-c3ccc(NC(=O)Nc4cccc(C(F)(F)F)c4)cc3)c12", "Output unit": "%", "Value reported": 52.8}
{"Molecule": "NS(=O)(=O)c1cccc(-c2ccc3c(NC(=O)C4CC4)n[nH]c3c2)c1", "Output unit": "%", "Value reported": -1.21}

Attention now turns to another entry.
Query: In one line, give reported inhibition of the entry CCn1c(-c2nonc2N)nc2c(N3CCCC3)nccc21 .
Response: -2.52

---

Target: Tyrosine-protein kinase ZAP-70 (Homo sapiens)
Conditions: at 1 µM
Description: GSK_PKIS: ZAP70 mean inhibition at 1 uM [Nanosyn]
// reported inhibition for each item listed
The figure you give is taken to be in %; do not add the unit.

Query: In one line, give reported inhibition of the entry CC(=O)Nc1cccc(C#Cc2cncnc2Nc2ccc(OCc3cccc(F)c3)c(Cl)c2)n1 .
Response: -0.49

Query: In one line, give reported inhibition of the entry Cc1ccc(NC(=O)c2ccnc(N3CCCC3)c2)cc1-c1ccc(C(=O)NCC2CC2)cc1 .
Response: 0.03

Query: In one line, give reported inhibition of the entry CS(=O)(=O)CCNCc1ccc(-c2ccc3ncnc(Nc4ccc(OCc5cccc(F)c5)c(C(F)(F)F)c4)c3c2)o1 .
Response: -2.61

Query: In one line, give reported inhibition of the entry CC1=C(C(=O)Nc2ccc3[nH]ncc3c2)C(c2ccc3ccccc3c2)CC(=O)N1 (stereo not given) .
Response: 2.98

Query: In one line, give reported inhibition of the entry COc1ccc2cc(-c3c(-c4ccncc4)nc(-c4ccc([S+](C)[O-])cc4)n3C)ccc2c1 (stereo not given) .
Response: 2.34

---

Test system: Tyrosine-protein kinase ABL1 (Homo sapiens), P00519 [E255K]
Sequence (P00519 whole entry E255K): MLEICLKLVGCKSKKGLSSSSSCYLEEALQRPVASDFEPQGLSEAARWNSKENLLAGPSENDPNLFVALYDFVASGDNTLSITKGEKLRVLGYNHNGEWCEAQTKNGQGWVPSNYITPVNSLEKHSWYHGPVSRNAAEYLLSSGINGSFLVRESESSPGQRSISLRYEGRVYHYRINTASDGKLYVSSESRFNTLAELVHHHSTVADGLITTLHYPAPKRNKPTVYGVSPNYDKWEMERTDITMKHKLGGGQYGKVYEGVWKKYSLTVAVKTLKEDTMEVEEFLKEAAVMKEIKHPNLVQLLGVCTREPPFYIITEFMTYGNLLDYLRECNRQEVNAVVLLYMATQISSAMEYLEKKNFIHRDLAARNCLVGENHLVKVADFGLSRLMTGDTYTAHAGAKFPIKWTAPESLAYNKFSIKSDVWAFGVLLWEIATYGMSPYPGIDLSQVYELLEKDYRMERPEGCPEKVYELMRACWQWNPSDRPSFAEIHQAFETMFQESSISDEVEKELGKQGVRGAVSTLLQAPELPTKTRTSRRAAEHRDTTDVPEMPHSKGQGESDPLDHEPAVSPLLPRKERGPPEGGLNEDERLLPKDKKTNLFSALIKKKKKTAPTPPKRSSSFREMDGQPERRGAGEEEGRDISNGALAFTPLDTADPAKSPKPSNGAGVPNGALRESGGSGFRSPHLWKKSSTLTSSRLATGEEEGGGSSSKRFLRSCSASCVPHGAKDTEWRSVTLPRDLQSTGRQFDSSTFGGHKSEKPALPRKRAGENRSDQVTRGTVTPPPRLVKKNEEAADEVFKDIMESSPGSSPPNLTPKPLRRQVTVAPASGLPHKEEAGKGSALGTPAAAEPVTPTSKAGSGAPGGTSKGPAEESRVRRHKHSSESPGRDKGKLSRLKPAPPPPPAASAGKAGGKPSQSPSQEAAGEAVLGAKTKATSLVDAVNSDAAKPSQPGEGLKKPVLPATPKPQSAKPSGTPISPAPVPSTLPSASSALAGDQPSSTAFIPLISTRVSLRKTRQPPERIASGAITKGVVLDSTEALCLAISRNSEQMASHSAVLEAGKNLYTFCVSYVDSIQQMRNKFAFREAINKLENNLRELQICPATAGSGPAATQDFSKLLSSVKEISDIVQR
Settings: at 1 µM
Measured endpoint: inhibition (%)
The figure you give is taken to be in %; do not add the unit.

These solved cases illustrate the format of a correct answer.
{"Compound": "COc1cc(C)c(NC(=O)CN(C)C)cc1Nc1nc(Nc2cccc(F)c2C(N)=O)c2cc[nH]c2n1", "Measured endpoint": "inhibition", "Output unit": "%", "Value reported": 0.03}
{"Compound": "Nc1ncnc2occ(-c3ccc(NC(=O)Nc4cccc(C(F)(F)F)c4)cc3)c12", "Measured endpoint": "inhibition", "Output unit": "%", "Value reported": 38.8}
{"Compound": "COc1ccc2cc(-c3c(-c4ccncc4)nc(-c4ccc([S+](C)[O-])cc4)n3C)ccc2c1 (stereo not given)", "Measured endpoint": "inhibition", "Output unit": "%", "Value reported": 1.85}
{"Compound": "COc1ccccc1Nc1ncc(-c2ccccc2)o1", "Measured endpoint": "inhibition", "Output unit": "%", "Value reported": 8}

Query: In one line, give reported inhibition of the entry NCc1ccc(-c2nc(-c3ccc(Cl)c(O)c3)c(-c3ccncc3)[nH]2)cc1 .
Response: 43.3

---

Biological target: Dual specificity tyrosine-phosphorylation-regulated kinase 1A (Homo sapiens) (UniProt Q13627)
Conditions: at 0.1 µM
Description: GSK_PKIS: DYRK1A mean inhibition at 0.1 uM [Nanosyn]
Measured endpoint: inhibition (%)
The figure you give is taken to be in %; do not add the unit.

These solved cases illustrate the format of a correct answer.
{"Compound": "NS(=O)(=O)c1ccc(N/N=C2\\C(=O)Nc3ccc(C(=O)NCCc4c[nH]cn4)cc32)cc1", "inhibition / %": 6.64}
{"Compound": "[O-][S+]1CCN(Cc2ccc(-c3ccc4ncnc(Nc5ccc(OCc6ccccc6)c(F)c5)c4c3)o2)CC1", "inhibition / %": 2.61}
{"Compound": "O=C1NC(=O)C(c2ccccc2Cl)=C1Nc1cccc(O)c1", "inhibition / %": 8.06}
{"Compound": "COc1ccccc1Nc1ncc(-c2ccccc2)o1", "inhibition / %": 2.5}
{"Compound": "O=C(Nc1n[nH]c2nc(-c3ccco3)c(Br)cc12)C1CC1", "inhibition / %": 1.71}
{"Compound": "Fc1cccc(COc2ccc(Nc3ncnc4sc(-c5cccs5)cc34)cc2Cl)c1", "inhibition / %": 1.88}
{"Compound": "O=C1NC(=O)C(c2cccc(Cl)c2)=C1Nc1ccc(O)c(Cl)c1", "inhibition / %": 2.08}
{"Compound": "CCc1cccc(NC(=O)Nc2ccc(Oc3ccc4nc(NC(=O)OC)[nH]c4c3)cc2)c1", "inhibition / %": 0.05}

Query: In one line, give reported inhibition of the entry Cc1nn(C)c2cc(N(C)c3ccnc(Nc4cccc(S(N)(=O)=O)c4)n3)ccc12 .
Response: 0.4

Query: In one line, give reported inhibition of the entry Cc1nnc(-c2ccc(C)c(-c3ccc(C(=O)Nc4cccc(C#N)c4)cc3)c2)o1 .
Response: 0.92

Query: In one line, give reported inhibition of the entry COc1cccc(-n2ncc3c(N/N=C/c4cccc(F)c4)ncnc32)c1 .
Response: 2.01

Measured values drawn from ChEMBL document CHEMBL1961873 for this set.
